Test system: Staphylococcus aureus
Test: Antibacterial activity against Staphylococcus aureus ATCC 25923 assessed as reduction in bacterial cell growth measured for 18 hrs by Mueller-Hinton broth based two-fold serial dilution method
Format: functional
Peptide text beside a SMILES is read from it. * marks the point of attachment. Undecanoyl = CCCCCCCCCCC(=O)*
reported.property: MIC (µM)

[
  {
    "compound": "CCCCCCCCCCC(=O)NCC(=O)N[C@@H](CC(C)C)C(=O)N[C@@H](CC(C)C)C(=O)N[C@@H](CCCCN)C(=O)N[C@@H](CCCNC(=N)N)C(=O)N[C@H](C(=O)N[C@@H](CCCCN)C(=O)N[C@H](C(=O)N[C@@H](CC(C)C)C(=O)N[C@@H](CC(C)C)C(N)=O)[C@@H](C)O)[C@@H](C)CC (Undecanoyl-GLLKRIKTLL-NH2)",
    "result": 8
  }
]

====

Assay: Hemolytic activity in human red blood cells
Type: toxicity, cell-based, Erythrocyte
Details: red blood cells

[
  {
    "structure": "CC[C@H](C)[C@H](NC(=O)[C@H](CCCCN)NC(=O)[C@H](CCCCN)NC(=O)[C@H](CC(C)C)NC(=O)[C@H](CC(C)C)NC(=O)CN)C(=O)N[C@@H](CCCCN)C(=O)N[C@@H](CCCCN)C(=O)N[C@@H](CC(C)C)C(=O)N[C@@H](CC(C)C)C(N)=O",
    "HC50": "< 500 µM"
  }
]

====

Test: Hemolytic activity in human RBC assessed as hemolysis
Format: toxicity, cell-based, Erythrocyte
Details: red blood cells
Peptide text beside a SMILES is read from it.
reported.property: HC50 (µM)

[
  {
    "molecule": "CC[C@H](C)[C@H](NC(=O)[C@H](Cc1ccccc1)NC(=O)[C@H](CCCCN)NC(=O)[C@H](CC(C)C)NC(=O)[C@H](CC(C)C)NC(=O)[C@@H](N)CCCCN)C(=O)N[C@@H](CCCCN)C(=O)N[C@H](C(=O)N[C@@H](CC(C)C)C(=O)N[C@@H](CC(C)C)C(N)=O)[C@@H](C)O (H-KLLKFIKTLL-NH2)",
    "reported.property": "HC50",
    "result": 295
  },
  {
    "molecule": "CC[C@H](C)[C@H](NC(=O)[C@H](CCCNC(=N)N)NC(=O)[C@H](CCCCN)NC(=O)[C@H](CC(C)C)NC(=O)[C@H](CC(C)C)NC(=O)CN)C(=O)N[C@@H](CCCCN)C(=O)N[C@@H](Cc1ccccc1)C(=O)N[C@@H](CC(C)C)C(=O)N[C@@H](CC(C)C)C(N)=O (H-GLLKRIKFLL-NH2)",
    "reported.property": "HC50",
    "result": 326
  },
  {
    "molecule": "CC[C@H](C)[C@H](NC(=O)[C@H](CCCNC(=N)N)NC(=O)[C@H](CCCCN)NC(=O)[C@H](CC(C)C)NC(=O)[C@H](CC(C)C)NC(=O)CN)C(=O)N[C@@H](CCCCN)C(=O)N[C@H](C(=O)N[C@@H](CC(C)C)C(=O)N[C@@H](CC(C)C)C(N)=O)C(C)C (H-GLLKRIKVLL-NH2)",
    "reported.property": "HC50",
    "result": 69.5
  }
]

====

Tested on: Escherichia coli
Assay: Antibacterial activity against Escherichia coli ATCC 25922 assessed as reduction in bacterial cell growth measured for 18 hrs by Mueller-Hinton broth based two-fold serial dilution method
Assay type: functional
Square brackets hold non-standard residues; d marks the D form. Peptide text beside a SMILES is read from it. * marks the point of attachment. Pentadecanoyl = CCCCCCCCCCCCCCC(=O)*; NMeR = CN[C@@H](CCCNC(=N)N)C(=O)O; NMeK = CN[C@@H](CCCCN)C(=O)O; Nonanoyl = CCCCCCCCC(=O)*
reported.property: MIC (µM)

[
  {
    "compound": "CCCCCCCCCCCCCCC(=O)NCC(=O)N[C@@H](CC(C)C)C(=O)N[C@@H](CC(C)C)C(=O)N[C@@H](CCCCN)C(=O)N(C)[C@@H](CCCNC(=N)N)C(=O)N[C@H](C(=O)N(C)[C@@H](CCCCN)C(=O)N[C@H](C(=O)N[C@@H](CC(C)C)C(=O)N[C@@H](CC(C)C)C(N)=O)[C@@H](C)O)[C@@H](C)CC (Pentadecanoyl-GLLK[NMeR]I[NMeK]TLL-NH2)",
    "reported.property": "MIC",
    "result": 16
  },
  {
    "compound": "CCCCCCCCC(=O)NCC(=O)N[C@@H](CC(C)C)C(=O)N[C@@H](CC(C)C)C(=O)N[C@@H](CCCCN)C(=O)N[C@@H](CCCNC(=N)N)C(=O)N[C@H](C(=O)N[C@@H](CCCCN)C(=O)N[C@H](C(=O)N[C@@H](CC(C)C)C(=O)N[C@@H](CC(C)C)C(N)=O)[C@@H](C)O)[C@@H](C)CC (Nonanoyl-GLLKRIKTLL-NH2)",
    "reported.property": "MIC",
    "result": 8
  },
  {
    "compound": "CCCCCCCCC(=O)NCC(=O)N[C@@H](CC(C)C)C(=O)N[C@@H](CC(C)C)C(=O)N[C@@H](CCCCN)C(=O)N(C)[C@@H](CCCNC(=N)N)C(=O)N[C@H](C(=O)N(C)[C@@H](CCCCN)C(=O)N[C@H](C(=O)N[C@@H](CC(C)C)C(=O)N[C@@H](CC(C)C)C(N)=O)[C@@H](C)O)[C@@H](C)CC (Nonanoyl-GLLK[NMeR]I[NMeK]TLL-NH2)",
    "reported.property": "MIC",
    "result": 128
  }
]

====

System: Pseudomonas aeruginosa
Experiment: Antibacterial activity against Pseudomonas aeruginosa ATCC 27853 assessed as reduction in bacterial growth incubated for 18 hrs by CLSI-based Mueller-Hinton broth dilution method
Format: functional
reported.property: MIC (µM)

[
  {
    "structure": "CCCCC(=O)NCCCC[C@@H](NC(=O)[C@H](CC(C)C)NC(=O)[C@H](CC(C)C)NC(=O)CN)C(=O)N[C@@H](CCCNC(=N)N)C(=O)N[C@H](C(=O)N[C@H](CCCCN)C(=O)N[C@H](C(=O)N[C@@H](CC(C)C)C(=O)N[C@@H](CC(C)C)C(N)=O)[C@@H](C)O)[C@@H](C)CC",
    "target.entity": "Pseudomonas aeruginosa",
    "censoring.operator": ">",
    "result": 128
  },
  {
    "structure": "CCCCCCCCC(=O)NCCCC[C@@H](NC(=O)[C@@H](NC(=O)[C@H](CCCNC(=N)N)NC(=O)[C@@H](CCCCN)NC(=O)[C@H](CC(C)C)NC(=O)[C@H](CC(C)C)NC(=O)CN)[C@@H](C)CC)C(=O)N[C@H](C(=O)N[C@@H](CC(C)C)C(=O)N[C@@H](CC(C)C)C(N)=O)[C@@H](C)O",
    "target.entity": "Pseudomonas aeruginosa",
    "censoring.operator": "=",
    "result": 16
  },
  {
    "structure": "CCCCCCCCCCCCC(=O)NCCCC[C@@H](NC(=O)[C@@H](NC(=O)[C@H](CCCNC(=N)N)NC(=O)[C@@H](CCCCN)NC(=O)[C@H](CC(C)C)NC(=O)[C@H](CC(C)C)NC(=O)CN)[C@@H](C)CC)C(=O)N[C@H](C(=O)N[C@@H](CC(C)C)C(=O)N[C@@H](CC(C)C)C(N)=O)[C@@H](C)O",
    "target.entity": "Pseudomonas aeruginosa",
    "censoring.operator": "=",
    "result": 8
  },
  {
    "structure": "CCCCC(=O)NCCCC[C@@H](NC(=O)[C@@H](NC(=O)[C@H](CCCNC(=N)N)NC(=O)[C@@H](CCCCN)NC(=O)[C@H](CC(C)C)NC(=O)[C@H](CC(C)C)NC(=O)CN)[C@@H](C)CC)C(=O)N[C@H](C(=O)N[C@@H](CC(C)C)C(=O)N[C@@H](CC(C)C)C(N)=O)[C@@H](C)O",
    "target.entity": "Pseudomonas aeruginosa",
    "censoring.operator": "=",
    "result": 64
  }
]

====

Listed here are compounds together with their documented MIC.
Tested on: Staphylococcus epidermidis
Test: Antibacterial activity against Staphylococcus epidermidis ATCC 12228 assessed as reduction in bacterial cell growth incubated for 18 hrs by two fold serial microdilution method
Type: functional
Square brackets hold non-standard residues; d marks the D form. Peptide text beside a SMILES is read from it. βAla = NCCC(=O)O
reported.property: MIC (µM)

[
  {
    "compound": "CC[C@H](C)[C@H](NC(=O)[C@H](CCCNC(=N)N)NC(=O)[C@H](CCCCN)NC(=O)[C@H](CC(C)C)NC(=O)[C@H](CC(C)C)NC(=O)CCN)C(=O)N[C@@H](CCCCN)C(=O)N[C@H](C(=O)N[C@@H](CC(C)C)C(=O)N[C@@H](CC(C)C)C(N)=O)[C@@H](C)O (H-[βAla]LLKRIKTLL-NH2)",
    "reported.property": "MIC",
    "unit.descriptor": "µM",
    "result": 8
  },
  {
    "compound": "CC[C@H](C)[C@H](NC(=O)[C@H](CCCNC(=N)N)NC(=O)[C@H](CCCCN)NC(=O)[C@H](CC(C)C)NC(=O)[C@H](CC(C)C)NC(=O)CCN)C(=O)N[C@@H](CCCCN)C(=O)NCCC(=O)N[C@@H](CC(C)C)C(=O)N[C@@H](CC(C)C)C(N)=O (H-[βAla]LLKRIK[βAla]LL-NH2)",
    "reported.property": "MIC",
    "unit.descriptor": "µM",
    "result": 64
  }
]

Cited source for all entries: ChEMBL document CHEMBL5608163
